# STUDY_TARGET: CDK8/Cyclin C (Homo sapiens, UniProt P49336)
# Sequence (P49336 whole entry): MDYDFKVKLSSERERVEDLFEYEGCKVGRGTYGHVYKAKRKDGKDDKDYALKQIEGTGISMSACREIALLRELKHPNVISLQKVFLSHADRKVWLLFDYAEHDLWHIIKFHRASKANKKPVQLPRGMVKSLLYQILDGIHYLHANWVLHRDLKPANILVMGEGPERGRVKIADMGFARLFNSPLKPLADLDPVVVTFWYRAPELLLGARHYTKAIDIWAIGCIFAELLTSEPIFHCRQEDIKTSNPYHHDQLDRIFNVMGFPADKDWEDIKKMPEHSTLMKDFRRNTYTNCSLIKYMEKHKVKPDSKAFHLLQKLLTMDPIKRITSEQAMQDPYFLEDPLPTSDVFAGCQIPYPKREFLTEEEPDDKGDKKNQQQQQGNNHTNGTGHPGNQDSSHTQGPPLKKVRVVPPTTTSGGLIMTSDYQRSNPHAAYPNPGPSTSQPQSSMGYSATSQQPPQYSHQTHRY
# Sequence (P24863 whole entry, further chain): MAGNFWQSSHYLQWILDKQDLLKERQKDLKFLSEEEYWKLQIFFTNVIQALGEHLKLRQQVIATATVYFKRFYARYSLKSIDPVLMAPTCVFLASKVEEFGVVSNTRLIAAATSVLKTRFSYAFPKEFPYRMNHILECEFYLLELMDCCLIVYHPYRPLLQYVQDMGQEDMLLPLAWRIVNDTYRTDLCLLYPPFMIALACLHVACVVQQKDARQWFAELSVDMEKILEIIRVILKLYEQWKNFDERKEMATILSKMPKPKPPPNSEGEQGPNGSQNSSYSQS
# TEST_DESCRIPTION: Inhibition of kinase tracer-236 binding to GST-tagged CDK8/CyclinC (unknown origin) after 60 mins by TR-FRET assay
# Format: protein-complex assay
pIC50: −log10 of the molar value.
MEASURED_ENDPOINT: pIC50

CNC(=O)c1ccc(Oc2sc(C(N)=O)c3c2-c2sncc2CC3)cn1 ... 8.72

1: NC(=O)c1sc(Oc2ccccc2)c2c1CCc1cnsc1-2
2: NC(=O)c1sc(Oc2ccccn2)c2c1CCc1cnsc1-2
3: CSc1sc(C(=O)Nc2ccccc2)c2c1-c1sncc1CC2
4: CSc1sc(C(N)=O)c2c1-c1oncc1CC2
5: Cc1c(Oc2sc(C(N)=O)c3c2-c2sncc2CC3)ccc[n+]1[O-]
rank_up(items): orders items by reported pIC50 in ascending numerical order. Write the labels out in the order the request specifies.
3, 4, 2, 5, 1
(3: 6.27, 4: 7.35, 2: 7.96, 5: 8.36, 1: 9.47)
